# Tested on: NIH3T3
# run.description: Cytotoxic Profiling of Annotated Libraries Using Quantitative High-Throughput Screening (AID 1296008); note: nearly all actives have a fitted effect of over 60% in size
# assay.setup: Five cell lines viability, CellTiter-Glo ATP luminescence, 48-72 h
Inconclusive results are not listed. Calls of active or inactive are those of the source. Calls come from the whole dose curve; as a rule, active = well fitted inhibition curve with a large enough effect; inconclusive = small, poorly fitted or top-dose-only effect; inactive = flat fitted curve, though single readings scatter.
Hi! Could you answer with just one of these? Yes = active, No = inactive

What call does the record list for `COc1cc(/C=C/C(N)=O)cc(OC)c1OC` ?
No

What classification did `CC(=O)OC[C@H]1O[C@@H](OC(C)=O)[C@H](OC(C)=O)[C@@H]1OC(C)=O` end up with in this test?
No

For this molecule, state the assay outcome: `COc1cc(OC)nc(O[C@H](C(=O)O)C(OC)(c2ccccc2)c2ccccc2)n1`
No

Hi, sorry to bother you, what did the test record for `O=C(O)C(=O)Nc1cccc(-c2nn[nH]n2)c1` ?
No

Could you check what this test reported for `Nc1c2ccccc2nc2ccccc12` ?
Yes

Tell me the recorded outcome of this test for `Nc1c[n+](N2CCOCC2)no1` .
No

Source: PubChem BioAssay (NCATS)
